# SUBJECT_OF_TEST: mutant B-RAF (Homo sapiens, UniProt P15056, V600E)
# Construct: purchased Upstate (Charlottesville, Va.)
# Sequence (P15056 whole entry V600E): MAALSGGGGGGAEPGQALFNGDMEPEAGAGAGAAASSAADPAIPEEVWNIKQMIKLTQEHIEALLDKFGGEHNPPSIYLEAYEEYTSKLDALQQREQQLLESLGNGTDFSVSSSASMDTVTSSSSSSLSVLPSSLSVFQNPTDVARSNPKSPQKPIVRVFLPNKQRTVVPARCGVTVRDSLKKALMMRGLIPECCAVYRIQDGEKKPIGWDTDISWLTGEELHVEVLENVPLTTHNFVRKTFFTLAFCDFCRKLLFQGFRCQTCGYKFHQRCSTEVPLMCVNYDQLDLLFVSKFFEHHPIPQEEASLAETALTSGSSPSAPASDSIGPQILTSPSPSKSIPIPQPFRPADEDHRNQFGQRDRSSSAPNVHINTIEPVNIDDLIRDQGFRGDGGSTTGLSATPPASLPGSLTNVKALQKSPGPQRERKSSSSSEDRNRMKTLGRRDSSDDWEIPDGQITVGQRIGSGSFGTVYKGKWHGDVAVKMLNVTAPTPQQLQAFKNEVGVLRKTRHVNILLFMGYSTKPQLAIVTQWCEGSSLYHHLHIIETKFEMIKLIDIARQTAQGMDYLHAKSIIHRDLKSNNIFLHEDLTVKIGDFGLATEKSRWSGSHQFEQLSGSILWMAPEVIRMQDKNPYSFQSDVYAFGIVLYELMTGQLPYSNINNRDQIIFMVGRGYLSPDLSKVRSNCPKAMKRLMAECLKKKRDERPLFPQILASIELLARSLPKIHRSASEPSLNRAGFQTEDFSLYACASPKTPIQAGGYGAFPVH
# EXPERIMENT_DESCRIPTION: RAF biochemical assay (MEK-1 phosphorylation, anti-phospho MEK1/2 detection)
# TEST_CONTEXT: read-out: Mutant B-RAF IC50
Task for the reader: assign each of the following compounds its reported IC50.
Just the number in nM, nothing appended.

Fill in: IC50 of COc1ccc(NC(=O)N2CCC(Nc3nccc(-c4c(-c5ccc(F)cc5)nc5occn45)n3)CC2)cc1 is ___
2560

What would you report for O=S(=O)(C1CC1)N1CCC(Nc2nccc(-c3c(-c4ccc(F)c(O)c4)nc4sccn34)n2)CC1 ?
0.03

What would you report for Cn1cnc(S(=O)(=O)N2CCC[C@@H](Nc3nccc(-c4c(-c5cccc(O)c5)nc5sccn45)n3)C2)c1 ?
11

What would you report for O=Cc1cccc(-c2nc3sccn3c2-c2ccnc(N[C@@H]3CCCN(S(=O)(=O)c4ccc(Cl)cc4)C3)n2)c1 ?
280

What would you report for CCC(=O)N1CCC(Nc2nccc(-c3c(-c4ccc(F)cc4)nc4occn34)n2)CC1 ?
1500

What would you report for Fc1ccc(-c2nc3sccn3c2-c2ccnc(N[C@@H]3CCCNC3)n2)cc1F ?
1260

What would you report for O=S(=O)(c1ccc(F)cc1)N1CCC(Nc2nccc(-c3c(-c4cccc(O)c4)nc4sccn34)n2)CC1 ?
29

What would you report for NC(=O)Oc1cccc(-c2nc3occn3c2-c2ccnc(N[C@@H]3CCCN(S(=O)(=O)c4ccc(Cl)cc4)C3)n2)c1 ?
109

What would you report for O=S(=O)(c1ccc(Cl)cc1)N1CCC(Nc2nccc(-c3c(-c4cccc(O)c4)nc4occn34)n2)CC1 ?
126
